- Test system: DU-145 prostate
- Protocol text: NCI tumour cell line growth inhibition, 48 h
Recorded metric: TGI (µM)
Kindly provide the numeric value in µM only, without the unit symbol.

Param readout= TGI; system= DU-145 prostate; entry= C=C(C)[C@@H]1CC[C@]2(C)[C@H](CC[C@@H]3[C@@H]([C@@](C)(O)CCC=C(C)C)CC[C@]32C)[C@@]1(C)CCC(=O)O ; returns value.
32.4

Please provide the recorded TGI for c1ccc2c(c1)Nc1cccc3c1c-2nc1ccccc13 , tested on DU-145 prostate.
2.6

Which TGI is reported with DU-145 prostate for this entry: CS(=O)(=O)CS(=O)(=O)OCCCl ?
748

Look up TGI with DU-145 prostate for this molecule: COc1ccc(N2C(=O)C(=O)N(c3ccc(N=Nc4ccccc4)cc3)C2=S)cc1
34.3

---

- Test system: SW-620 colon
- Protocol text: NCI tumour cell line growth inhibition, 48 h
Recorded metric: TGI

Which TGI value is on record for COc1cc(Nc2nc3cc(C(F)(F)F)ccc3nc2C(=O)O)cc(OC)c1OC ?
> 100 µM

Fill in the blank: the reported TGI of C=C1CCCCCCCCC/C=C/1SCCCSC is ____.
> 100 µM

Requested field: TGI. Item: C=C1CC[C@H]2C(=O)OC(c3ccoc3)C[C@]2(C)C/C=C\C=C/1C(=O)OC (stereo not given in full)
> 25 µM

# lookup: TGI of CC12CCC(=O)N1c1cccnc1N2 (stereo not given)
> 100 µM

So what does the record say about TGI for Cc1ccc2occ/c(=N\Nc3ccccc3)c2c1 ?
> 100 µM

---

- Tested on: BT-549 breast
- Protocol text: NCI tumour cell line growth inhibition, 48 h
Recorded metric: TGI

Consider the compound COc1ccc(/C=C/c2cnccn2)cc1OC and give its measured TGI.
> 10 µM

I would be grateful if you could share the reported TGI for O=C1CC(=O)NC(=NN2C(=O)/C(=C/c3ccc(Cl)c(Cl)c3)N=C2c2ccccc2)N1 .
49.2 µM

Entry Oc1c(Br)ccc2cccnc12 has what TGI?
> 92.2 µM

Entry Cn1cc(S(=O)(=O)N2CCC3=Cc4c(cnn4-c4ccc(F)cc4)C[C@]3(C(=O)c3cc(C(F)(F)F)ccn3)C2)cn1 has what TGI?
> 100 µM

Record request: TGI value, item O=Cc1ccc(-c2ccc(-c3ccc(CO)s3)o2)s1
67.9 µM

Record request: TGI value, item Oc1ccc(Oc2cnc3ccccc3n2)cc1
57.5 µM

---

- Test system: A549 NSCLC
- Protocol text: NCI tumour cell line growth inhibition, 48 h
Recorded metric: TGI

Looking for the measured TGI of COc1cccc(CC(=O)N2CCN(CCCc3ccccc3)CC2)c1 , can you help?
> 100 µM

Which TGI is listed for c1ccc(NCCSc2nc3ccccc3s2)cc1 ?
> 100 µM

Report TGI for CC(=O)[CH-]C(=O)c1ccccc1.CC(=O)[CH-]C(=O)c1ccccc1.O=S(=O)([O-])c1cc([O-])c2c([O-])cc(S(=O)(=O)[O-])cc2c1.[Na+].[Ti+4] please.
> 100 µM

// returns reported TGI for input CC(=O)NC1C(Sc2ncn(C3OC(CO)C(O)C(O)C3NC(C)=O)n2)OC(CO)C(O)C1O (stereo unspecified)
> 100 µM

Look up TGI for this compound: CC(C)(C)c1cc(C(=O)/C=C/c2ccc(C(=O)O)cc2)cc(C(C)(C)C)c1
13.4 µM

Can you share its TGI? I mean this compound: N#Cc1c(-c2ccco2)cc(-c2ccc(N)cc2)[nH]c1=O
> 100 µM

---

- System: MDA-MB-435
- Protocol text: NCI tumour cell line growth inhibition, 48 h
Recorded metric: TGI

I would be grateful if you could share the reported TGI for CC(NC(=O)Cc1ccccc1)NC(=O)C(C)C(=O)NCc1ccccc1 (stereo unspecified) .
> 100 µM

Fill blank: measured TGI of the molecule COc1ccc(/C=C/c2cnccn2)cc1OC is ____.
> 10 µM

Item under review: c1ccc2c3[nH]c(c2c1)=Nc1ccc(cc1)-c1nc2ccc(cc2o1)N=c1[nH]c(c2ccccc12)=Nc1ccc2nc(oc2c1)-c1ccc(cc1)N=3 . Reported TGI?
> 100 µM

Need TGI of NCCCn1c2c(c3ccccc3c1=O)C(=O)c1ccccc1-2 , thanks.
3.07 µM

Which TGI reading was recorded for the molecule O=C1OCC2OC(=O)c3cc(O)c(O)c(O)c3-c3c(O)c(O)c(O)c4c3C(=O)OC(C2OC(=O)c2cc(O)c(O)c(O)c2-c2c1cc(O)c(O)c2O)C1OC(=O)C2C4=C(O)C(=O)C23Oc2cc(O)c4c(c2[C@H]13)O[C@H](c1ccc(O)c(O)c1)[C@@H](O)C4 (stereo partly specified) ?
45 µM

GET /values?readout=TGI&item= C=C(C)[C@@H]1CC[C@]2(C)[C@H](CC[C@@H]3[C@@H]([C@@](C)(O)CCC=C(C)C)CC[C@]32C)[C@@]1(C)CCC(=O)O
38.6 µM

Entry O=C1CCSCCC(=O)Nc2ccccc2N1 has what TGI?
> 100 µM

So what's the measured TGI for this one? CN(C)CCNc1nc2ccccc2c2c(=O)c3cc(F)ccc3sc12
3.06 µM

Suppose we examine the molecule CC(=O)OCC1OC(n2c(C)c(N=Nc3ccc(Cl)cc3)c(C)c(C#N)c2=S)C(OC(C)=O)C(OC(C)=O)C1OC(C)=O (stereo unspecified) ; what TGI value has been reported?
> 100 µM

What does the data say about its TGI? Entry: CC(=O)NC1C(Sc2ncn(C3OC(CO)C(O)C(O)C3NC(C)=O)n2)OC(CO)C(O)C1O (stereo unspecified)
> 100 µM

Need TGI, item CC1=NC(C)(COC(=O)C2(C)NC(C)(CO)CO2)COC1=O (stereo unspecified)
> 100 µM

Given the molecule COC(=O)C1=C(OC)[C@H]2C#C/C=C\C#C[C@@H]3Nc4c(cc(O)c5c4C(=O)c4ccccc4C5=O)[C@]24O[C@@]34[C@H]1C , what is its reported TGI?
0.0448 µM

Bench note: what TGI did S=C1NCCN1C(=S)Nc1ccccc1 show?
> 100 µM

Would you mind telling me what TGI value was observed for CCOc1cc(NC(C)=O)ccc1C(=O)NNS(=O)(=O)c1ccc(NC(C)=O)cc1 ?
> 100 µM

Dear colleague, I am looking for the recorded TGI of the following molecule: CN(C)CCCNc1ccc2ncn3c4ccc(O)cc4c(=O)c1c23
19.3 µM

Which TGI value belongs to NC1(CCNC(=O)c2ccccc2)CCN(C(=O)c2ccccc2)CC1 ?
> 100 µM

---

- System: RPMI-8226 leukemia
- Protocol text: NCI tumour cell line growth inhibition, 48 h
I'd appreciate it if you could supply TGI values for the items below.
Answer format: numeric, µM implied, no suffix.

Consider the compound shown here: O=C(Cn1c2ccc(Br)cc2c2nc3ccccc3nc21)NNC(=S)NC1CCCCC1 What is its recorded TGI?
26.8

Could you tell me which TGI is on file for CCCn1cnc2c(SCc3ccc(Cl)cc3)nc(N)nc21 ?
40.2

Need TGI, item O=C1C(Br)=CC2(C=C1Br)CCNC1=C2C(=O)c2ncccc2C1=O
2.46

TGI for N#CC(C#N)=C1CCCOc2c1ccc1ccccc21 ?
65.1

Could you tell me which TGI is on file for CCC[CH2][Sn]1([CH2]CCC)[O]CC(COc2c(Cl)cc(Cl)cc2Cl)[O]1 (configuration not stated) ?
3.72

Can you look up the measured TGI of CCOC(=O)CCC(NC(=O)c1ccc(NCc2ccc3nc(-c4ccccc4)c(Cl)nc3c2)cc1)C(=O)OCC (configuration not stated) for me?
81.2

Item under review: c1ccc2c3[nH]c(c2c1)=Nc1ccc(cc1)-c1nc2ccc(cc2o1)N=c1[nH]c(c2ccccc12)=Nc1ccc2nc(oc2c1)-c1ccc(cc1)N=3 . Reported TGI?
86.2

Which TGI value is on record for CNC(C)[C@H]1CCC2C3CC=C4C(=O)[C@@H](NC(=O)C=C(C)C)CC[C@]4(C)C3CC[C@@]21C (some centres not stated) ?
5.27

Reported TGI, compound CCCCC1Cc2cc(O)ccc2-c2nc3cc(O)ccc3n21 (configuration not stated) (tested in a mixture with another compound) : ____
31.5

// returns reported TGI for input COc1cc2c(cc1OC)C1Cc3cc(OC)c(OC)cc3N1CC2 (configuration not stated)
88

Would you mind telling me what TGI value was observed for O=C1OCC2OC(=O)c3cc(O)c(O)c(O)c3-c3c(O)c(O)c(O)c4c3C(=O)OC(C2OC(=O)c2cc(O)c(O)c(O)c2-c2c1cc(O)c(O)c2O)C1OC(=O)C2C4=C(O)C(=O)C23Oc2cc(O)c4c(c2[C@H]13)O[C@H](c1ccc(O)c(O)c1)[C@@H](O)C4 (some centres not stated) ?
64.4

# query: TGI of entry Cc1c2ccc3ccccc3c2c[n+]2ccccc12
66.2

What does the record list as TGI for CCOC(=O)C(NC(=O)c1ccccc1)(N1CCN(c2cc3c(cc2F)c(=O)c(C(=O)O)cn3C2CC2)CC1)C(F)(F)F (configuration not stated) ?
54.1

I am curious: what TGI value has been reported for COC(=O)C1=C(OC)[C@H]2C#C/C=C\C#C[C@@H]3Nc4c(cc(O)c5c4C(=O)c4ccccc4C5=O)[C@]24O[C@@]34[C@H]1C ?
0.0188

// query TGI value for entry CC(=O)OC(CCC1(C)OC1COc1ccc(CCNC(=O)C=C(C)C)cc1)C(C)(C)OC(C)=O (configuration not stated)
60.7

Consider the compound Cc1c2c(C(N)=O)nccc2c(C)c2c1c1ccccc1n2Cc1ccccc1 and give its measured TGI.
61.2

Consider the compound shown here: O=C(Nc1ccc(Cl)cc1)Nc1nccs1 What is its recorded TGI?
16.6
